Measured cell viability accompanies every entry in the list below.
- Test system: NOMO1
- procedure details: cell viability relative to DMSO control; higher = less cytotoxic
- experimental parameters: HPLM + 10% dialyzed FBS; 48 h; 0.0632 µM

{"columns": ["sample smiles", "cell viability, %"],
 "data": [
  ["C#C[C@]1(O)CC[C@H]2[C@@H]3CCc4cc(O)ccc4[C@H]3CC[C@@]21C", 102],
  ["N=C(NCCCCCCNC(=N)NC(=N)Nc1ccc(Cl)cc1)NC(=N)Nc1ccc(Cl)cc1", 106],
  ["CC(C)CC(=O)N[C@H](C(=O)N[C@H](C(=O)N[C@@H](CC(C)C)[C@@H](O)CC(=O)N[C@@H](C)C(=O)N[C@@H](CC(C)C)[C@@H](O)CC(=O)O)C(C)C)C(C)C", 112],
  ["COCCCN1CCC(NC(=O)c2cc(Cl)c(N)c3c2OCC3)CC1", 147],
  ["O=C1c2c(O)ccc(O)c2C(=O)c2c(NCCNCCO)ccc(NCCNCCO)c21", 120],
  ["CSCC[C@@H](NC(=O)[C@@H](Cc1ccccc1)NC(=O)CNC(=O)CNC(=O)[C@@H](N)Cc1ccc(O)cc1)C(=O)O", 110]
]}

----------
- System: SEM cells
- procedure details: cell viability relative to DMSO control; higher = less cytotoxic
- experimental parameters: HPLM + 10% dialyzed FBS; 48 h; 15.4 µM
Form field: cell viability (one value per entry).
parameter: cell viability (%)

{"columns": ["molecule", "study system", "parameter", "unit abbreviation", "meas value"],
 "data": [
  ["O=C(c1ccc(Nc2nccc(-c3cc4ccccc4s3)n2)cc1)N1CCC(N2CCCC2)CC1", "SEM cells", "cell viability", "%", 10.8],
  ["CN(C)CCc1ccc(O)cc1", "SEM cells", "cell viability", "%", 135],
  ["CNc1nccc(-c2cccnc2Oc2cc(C(=O)Nc3cccc(C(F)(F)F)c3)ccc2C)n1", "SEM cells", "cell viability", "%", 90.2],
  ["Nc1ncnc2c1c(-c1cnc3[nH]ccc3c1)nn2C1CCCC1", "SEM cells", "cell viability", "%", 36.2],
  ["CC(C)C[C@H](NC(=O)[C@H](CCc1ccccc1)NC(=O)CN1CCOCC1)C(=O)N[C@@H](Cc1ccccc1)C(=O)N[C@@H](CC(C)C)C(=O)[C@@]1(C)CO1", "SEM cells", "cell viability", "%", 1.67],
  ["CC(N)C12CC3CC(CC(C3)C1)C2 (stereo not drawn)", "SEM cells", "cell viability", "%", 96.1],
  ["C[S+]([O-])(=O)C1=CC=C(C=C1)C/2=C(/C(=O)OC2)C3=CC=CC=C3", "SEM cells", "cell viability", "%", 79.7],
  ["C/C=C(/C)C(=O)O[C@H]1C(C)=C[C@]23C(=O)[C@@H](C=C(CO)[C@@H](O)[C@]12O)[C@H]1[C@@H](C[C@H]3C)C1(C)C", "SEM cells", "cell viability", "%", 70.3]
]}

----------
Entries and their cell viability
- Tested on: NOMO1
- procedure details: cell viability relative to DMSO control; higher = less cytotoxic
- experimental parameters: RPMI 5 mM glucose + 10% FBS; 48 h; 0.569 µM

{"columns": ["sample smiles", "unit abbreviation", "cell viability"],
 "data": [
  ["CC(C)C1=C(O)C=C(O)C(=C1)C/2=N/NC(=O)N2C3=CC4=C(C=C3)[N](C)C=C4", "%", 16.3],
  ["CC1(C)O[C@@H]2C[C@H]3[C@@H]4CCC5=CC(=O)C=C[C@]5(C)[C@H]4[C@@H](O)C[C@]3(C)[C@]2(C(=O)CO)O1", "%", 88.7],
  ["COc1ccc(-c2ccc3c(N4CCOC[C@@H]4C)nc(N4CCOC[C@@H]4C)nc3n2)cc1CO", "%", 75.1],
  ["CC/1=C(/N2[C@H](SC1)[C@H](NC(=O)[C@H](N)\\C3=C\\C\\C=C/C3)C2=O)C(O)=O", "%", 109],
  ["CC(C)CC(=O)N[C@H](C(=O)N[C@H](C(=O)N[C@@H](CC(C)C)[C@@H](O)CC(=O)N[C@@H](C)C(=O)N[C@@H](CC(C)C)[C@@H](O)CC(=O)O)C(C)C)C(C)C", "%", 99.8],
  ["Nc1ncnc2c1c(-c1cnc3[nH]ccc3c1)nn2C1CCCC1", "%", 112],
  ["C[C@@H]1[C@H](O)[C@@H](C)/C=C/C=C/C=C/C=C/C=C/C=C/C=C/[C@H](O[C@@H]2O[C@H](C)[C@@H](O)[C@H](N)[C@@H]2O)C[C@@H]2O[C@](O)(C[C@@H](O)C[C@@H](O)[C@H](O)CC[C@@H](O)C[C@@H](O)CC(=O)O[C@H]1C)C[C@H](O)[C@H]2C(=O)O", "%", 133],
  ["Cc1cc(C(C)(C)C)c(O)c(C)c1CC1=NCCN1", "%", 90.8],
  ["C[S+](=O)([O-])N1CCc2c(-c3cnc(N)nc3)nc(N3CCOCC3)nc21", "%", 101]
]}
